# METHOD DESCRIPTION: inhibitors of TNFa-induced NFkB p65 translocation, primary screen, imaging, HUVEC, MLSMR starter and 10KST1 sets (AID 438);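 note: compound added about 3h40 before a 20 min TNFalpha stimulation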
# CONDITION SET: HUVEC TNFa-induced p65 nuclear translocation; measured here: nuclei count (cytotoxicity indicator), at 2.08 µM
cell count of 600 or higher: fulfilled. Under 600: not fulfilled.

                            chemical_string  qualitative_label
0  O=S(=O)(c1ccc(Oc2ccc(-c3nnco3)cc2)nc1)N1CCC(Cc2ccccc2)CC1      not fulfilled
1  O=C(CSc1nc2ncccc2[nH]1)Nc1ccc2c(c1)OCCO2      not fulfilled
2  CCOc1ccc(N(CC(=O)NCc2cccc(OC)c2)S(=O)(=O)c2c(C)noc2C)cc1      not fulfilled
3  CCn1c(SCC(=O)Nc2ccc(C(=O)OC)cc2)nnc1-c1cccs1          fulfilled
4          COc1ccccc1OCCOCCn1cnc2ccccc2c1=O      not fulfilled
5    O=C1C(Cl)=C(N2CCCCC2)C(=O)N1c1ccccc1Cl      not fulfilled
6                       Nc1nnn(Cc2ccccc2)n1          fulfilled
7                 O=c1cnnc(NCc2ccccc2)[nH]1          fulfilled
8   CN(Cc1ccccc1)C(=O)c1ccccc1NC(=O)c1ccco1      not fulfilled

(Q) Identify whether the reported cell count of the following molecule is 600 or greater: `COC(=O)c1ccc(NC(=O)Cn2nnc3ccccc32)cc1`
(A) not fulfilled

###

# TARGET UNDER TEST: Voltage-gated potassium channel subunit beta-2 (Rattus norvegicus) (UniProt P62483)
# Sequence (P62483 whole entry, looked up): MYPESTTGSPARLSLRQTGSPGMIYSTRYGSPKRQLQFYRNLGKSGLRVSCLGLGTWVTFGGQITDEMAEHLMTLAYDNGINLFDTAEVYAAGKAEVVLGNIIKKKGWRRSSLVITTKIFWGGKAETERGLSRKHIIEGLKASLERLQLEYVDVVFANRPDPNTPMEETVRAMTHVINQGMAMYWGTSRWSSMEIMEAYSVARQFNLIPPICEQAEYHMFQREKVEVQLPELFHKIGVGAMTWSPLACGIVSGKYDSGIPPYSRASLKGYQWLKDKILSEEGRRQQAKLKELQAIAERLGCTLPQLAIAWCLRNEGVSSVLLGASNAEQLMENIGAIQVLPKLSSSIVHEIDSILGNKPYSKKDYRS
# METHOD DESCRIPTION: inhibitors of rat Kvbeta2 reductase activity – biochemical, NADPH fluorescence, primary screen (AID 622);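 note: slope of raw intensity against log time taken from 70 to 1610 s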
# CONDITION SET: recombinant KvBeta, 4-cyanobenzaldehyde reduction, at 10 µM, stronger effect = higher value
Reported fluorescence slope is given for each of the following molecules.
# respond with the number and nothing more

>>> print(df.to_string())
                                   molecule  endpoint_value
0             CCn1nccc1C(=O)Nc1cc(Cl)ccc1Cl          -0.385
1             C/C=C(\C)c1nnc(NC(=O)C(C)C)s1          -0.474
2    O=C(O)[C@@H]1CCCN1c1ncnc2sc3c(c12)CCC3          -0.412
3              Cn1nc(C(=O)NC2CCCCCC2)ccc1=O          -0.608
4  COc1cc(C2N=C(c3ccccc3)NO2)cc(Br)c1O (configuration not stated)          -0.546
5       COc1ccc(CNc2oc(-c3ccccc3)nc2C#N)cc1          -0.523
6  CCc1c(C)nc2ncnn2c1N1CCC(C(=O)NCc2cccc(OC)c2)CC1          -0.499
7  CC1CCN(C(=O)CSCC(=O)Nc2nc(-c3cccs3)cs2)CC1          -0.495
8    CCn1c(SCC(=O)c2ccc(C)cc2)nnc1-c1ccoc1C          -0.329
9        CCOc1cc(C(=O)Nc2ccon2)cc(OCC)c1OCC          -0.387

(Q) Consider the molecule `c1ccn2c(SCc3cn4ccsc4n3)nnc2c1` tested on Voltage-gated potassium channel subunit beta-2 (Rattus norvegicus) (UniProt P62483); state its fluorescence slope.
(A) -0.544

(Q) Consider the molecule `O=C(CSc1ccc2nnc(-c3ccccc3)n2n1)N1CCN(c2ccccc2)CC1` tested on Voltage-gated potassium channel subunit beta-2 (Rattus norvegicus) (UniProt P62483); state its fluorescence slope.
(A) -0.592
